Hey, just so you know, these numbers are from ChEMBL document CHEMBL1125515.

Assay: In Vitro evaluation for the growth inhibition of Subline (P388/CP) Leukemia cell lines
Type: functional, cell-based, Mus musculus
pIC50: −log10 of the molar value.
Attribute: pIC50

substance	pIC50
DICHLORO(ETHYLENEDIAMINE) PLATINUM (II)	5.99
CISPLATIN	5.28
